# credit: the nanobody polyreactivity screen of Harvey et al. (2022)

Assay: yeast display, Sf9 membrane polyspecificity reagent, FACS + sequencing; frameworks hold sequencing errors
reported.metric: polyreactivity (PSR sort gate)

Here are 4 sequences together with their reported answers.
QVQLVESGGGLVQAGGSLRLSCAASGIIFFLYAMGWYRPAPGKERELVAAISSGGSTYYADSVKGRFTISRDNAKNTVYLQMNSLKPEDTAVYYCNARYWPFRYYYWGQGTQVTVSS: high polyreactivity
QVQLVESGGGLVQAGCSLRLSCAASGRIFDTYAKGWYRQAPGKERELVATITAGTSTNYADSVKGRFTISRDNAKNTVYLKMNCLKPEDTAVYYCAASKYGSPPYRSYVYWGQGTQVSVSS: high polyreactivity
QVQHVESGGGLVQAGCSLRLSCAASGRTFSSNAMGWYRQAHGKVRELVAVISSGGSTYYADSVKGRFTISRDNAKNTVYLEMYSMKPEDTAVYICAAAVGPSGYYYESDYWGQGTQETVSS: high polyreactivity
QVQLVESGGGLVQAGGSLRLSCAASGRNFPYYAMGWYRQAPGKERELVAAISSSGGRTYYADSVKGRFTISRDNAKNTVYLQMNSLIPEDTAVYYCNVDAWYPYQGFLVGYYYWGQGTQVTVSS: low polyreactivity

Please examine the following record next.
polyreactivity (PSR sort gate) reported for this sequence `QVQLVESGGGLVQAGGSLRLSCADSGGTFGYYVMGWNRQAPGKERELVAAITSGGSTKYADSVKGRFTISRDNAKNTVYLQMNSLKPEDTAVYYCAADYPYYPFSSIYDYWGQGTQVTVSS` : low polyreactivity

---

Assay: yeast display, Sf9 membrane polyspecificity reagent, FACS + sequencing; frameworks hold sequencing errors
reported.metric: polyreactivity (PSR sort gate)

See these solved cases before continuing.
QVQLVESGGGLVQAGGSLRLSCAASGSIFAYYAMGWYRQAPGKEREFVAAISKRGGRTYYADSVKGRFTISRDNAKNTVYLQMNSLKPEDTAVYYCAAPWAYPRSGGDYWGQGTQVTVSS: high polyreactivity
QVQLVESGGGLGQAGGSLLLSCAASGSTFKYNAMGWNRKAPGKERELVPAISRGGRTNYADSVKGRFKISRDNAKNTVYLQMNSLKPEDTAVYYCAKDVAGLFHVGALYYYWGQGTQVTVSS: low polyreactivity
QVQLVESGGCLVQAGGRLRLSCAASGRIFYRYSMGWYRQAPGKERELVAAINDVGSTYYADSVKGRFTISRDNAKNTVYLQMNILKPEDTAVYYCNGVNEHQSDFVVPFDYNHWGQGTQVTVSS: low polyreactivity
QVQLVESGGGLVQAGGSLSLSCAASGIIFYDYAMGWYRQAPGKERELVAVISRSGGSTYYADSVKGRFTISRDNAKNTVYLQMNSLNPEDTAVYYCARAYSLRVVTGDYWGQGTQVTVSS: high polyreactivity
QVQLVESGGGLVQAGGILRLSCAASGYNFKYYAMGWYRQAPGKERELVAAISRSGGSTYYADSVKGRFTISRDNAKNTVYLQMNSLTPEDTAVYYCAAYTHYAYGHDYWGQGTQVTVSS: high polyreactivity
QVQLVESGGGLVQAGGSLRLSCAASGTILRPYAMGWYRQAPGKERELVAAISTSGGRTFYADSVKGRFTISRDNAKNTVYLQMYSLNPEDTAVYYCAAVGYRFGSNYWGQGTQVTVSS: high polyreactivity
QVQLVESGGGLVQAGGSLRLSCAASGRTFRYYAMGWYRQAPGKERELVASITSGGRTYYADSVKGRFTISRDNAKNTVYLQMNSLKPEDTAVYYCAADRFGIGGKRGNDYWGQGTQVTVSS: high polyreactivity
QVQLVESGGGLVQAGGSLRLSCAPSGSIFPDYAMGWYRHAPGKQRELVAAIRSGSRTYYADSVKGRFTISRDNAKITVYLQMNSLNPEDTAVYYCATTYGTPRYDYWGQGTQVTVSS: high polyreactivity
QVQLVESGGGLVQAGGSLRISCAASGNILFSYAMGWYRQAPGKERELVAAISRSGGSTYYADSVKGRFTISRDNAKNTVYLQMNSLKPEDTAVYYCNTYSIAYYSPGYDYWGQGTQVTVSS: high polyreactivity
QVQLVESGGGLVQAGGSLRLSCAASGFTITRNTMGWYRQAPGKERELVAAITRGGSTNYADSVKGRFTISRDNAKNSVYLQMNSLKPEDTAVYYCNKGRNVVLVRTADDYWGQGTQVTVSS: low polyreactivity

Note to self: polyreactivity (PSR sort gate) recorded for `QVQLVESGGGLVQAGGSLRLSCAASGRILAGYAMGWYRQAPGKERELVAAITRGGTTYYADSVKGRFTISRDNAKNSVYLQMNSLKPEDTAVVYTVSSAQYDYCGQGTQVTVSS` was low polyreactivity

The sequence `QVQLVESRGGLVQAGGSLRLSCAASVSIVGIYVMGRYRQAPGKERELVAGISTRGGSTYYADSVKGRFTIARDNAKNTVYLQMNSLKPEDTAVYYCAVRAWDPYTGKSDYWGQGTQVTVSS` showed polyreactivity (PSR sort gate) equal to low polyreactivity

Recorded result, `QVQLVESGGGLVQAGGSLRISCAASGSTFTINVMGWYTQAPGKERELVAAINGGGRTNYADSVKGRFTISRDNAKNTVYLQMNSLIPEDSAVYYCAADGLSIVRQMDYWGLGTQVTVSS` , polyreactivity (PSR sort gate): low polyreactivity

Data point: `QVQLVESGGGLVQAGGSLRLSCAASGRTIRGYTMGWYRQSAGTERELVATITKRGGSTTYADSVKGRFTISRDNAKNTVYLQMNSLKPEDTAVYYCNKDTITSTLTPYTSWFGYWGQGTQVTVSS` ; polyreactivity (PSR sort gate) = high polyreactivity

`QVQLVESGGGLVQAGGSLRLSCAASGSTIGDNAMGWYRQAPGKERELVASITGGGGSTYYADSVKGRFTISRDNAKNTVYLQMNSLKPEDTAVYYCAAVYQSYTYYLPKYWSFYQNDYWGQGTQVTVSS` yielded polyreactivity (PSR sort gate) of low polyreactivity

Query `QVQLVESGGGLVQAGGSLRLSCAASGRTFYGYAIGRYIQAPGNERELVAAISRRGGSTNYADSVKGRFTISRDNAKNTVFLQMNSLKPEDTAVYYCNANYYRTHYDYWGQGTQVTVSS` yields polyreactivity (PSR sort gate) of high polyreactivity

Record `QVQLVESGGGLVQAGGSLRLSCAASVSIFYRNARGWYRQEPGKEREMVAAISSSVSSTYYADSVKGRFTISRDNAKNTVYLQMNSLKPEDTAVYYCAARRFQRGGDYFYRYLYDYWGQGTQVTVSS` , field polyreactivity (PSR sort gate): low polyreactivity

---

Assay: yeast display, Sf9 membrane polyspecificity reagent, FACS + sequencing; frameworks hold sequencing errors
reported.metric: polyreactivity (PSR sort gate)

Example cases with answers are listed next.
QVQLVESGGGLVQAGGSLRLSCAASGSLSSRNAMGAYRQAPGKERELVAAITRGSSTNYADSVKGRFTISRDNAKNTVYLQMNSLKPEDTAVYYCARRYDPVYKGMGYWGQGTQVTVSS: low polyreactivity
QVQLEESGGGLVQAGGSLRLSCAATGRIFSYAMGWYRQAPGKETELVAGISRSGGSTYYADSVKGRFTISSDNAKITVYLQMNSVKPEDTAVYYCARYDRGGRHYYYWGQGTQVTVSS: high polyreactivity
QVQLGESGGGLVQAGGSLRLSCAASGSTFGFYAMGWYRQAPGKERELVAAISGRGGSTYYADSVKGRFTISRDNAKNTVYLQMNSLKPEDTAVYYCAKEFKYWGYPYDYWGQGTQVTVSS: low polyreactivity
QVQLVESGGGLVQAGGSLRLSCAASGIIFHGYAMGWYRQAPGKERDLVAAITASDGDTYYADSVKGRFTISRDNAKNTVYLQMNSMKPEDTAVYYCAADFWYYHTRMDYWGQGTQVTVSS: low polyreactivity
QVQLVESGGGLVQAGGSLRLSCAASGRIFPGNAMGWYRQAPGKEREFVAAINTRGGITYYADSVKGRFTISRDNAKNTVYLQMNSLKPEDTAVYYCNKRWSIRSGYPYTYGIYDYWGQGTQVTVSS: low polyreactivity
QVQLVESGRGLVQAGGSLRLSCAASGRIFRWYDMGWYRKAPGKERELVAAISSRGGSTYYADSVKGRFTISRDNAKNTVYLQMNSLKPEDTAVYYCAADTSGWQPRYDYWGQGTQVTVSS: high polyreactivity
QVQLVESGGGLVQAGGSLRLSCAASGITFPANARGWYRQAPGKERELVADISESDGSTYYADSVKGRFTISRDNAKNTVFLQMNSLKPEDTAVYYCAADGTSGTRSDYWGQCTQVTVSS: low polyreactivity
QVQLVESGGGLVQAGGSLRLSCAASGFTFFGYAMGWYRQEPGKERELVAAISTIDGDTYYADSVKGRFTISRDNAKNSFYFLMNSLKPEDTAVYYCAADDYIDGDDYWGQGTQVTVSS: low polyreactivity

polyreactivity (PSR sort gate) for `QVQLVESGGGLVQAGGSLRLSCAASGRTFRTNAMGWYRQAAGKERELVAAIRASTGSTYYADSVKGRFTMSRDNAKNTVYLQMNSLKPEDTAVYYCAARLRRGLTATWYYYWGQGTQVTVSS` is high polyreactivity

For record `QVQLVESGGGLVQAGGSLRLSCAASGSIGYYAMGWYRQAPGKERELVAVISRSGTGTSYADSVKGRFTISRDNAKNTVYSQMTSLKPEDTAVYYCNAETYTYRYENDYWGQGTQVTVSS` the listed polyreactivity (PSR sort gate) is high polyreactivity

Lab note: `QVQLVESGRGLVQAGGSLRLSCAASGVIFSIYAMGWYRQAPGKERELVAAISTSGGSTYYADSVKGRFTISRDNAKNTVYLQMNRLKPEDTAVYYCNARRGFYWSWRGRYISGDYWGQGTQVTVSS` gave polyreactivity (PSR sort gate) of high polyreactivity

Measured polyreactivity (PSR sort gate) of `QVQLVESGGGLVQAGGSLRLSCAASGSTLDSYTMGWYRQAPGKERELVATISTSGGSTYYADAVKGRFTISRDNAKNTVSIQMNSLKPEDTAVYYCKADAPFGPNRYNSWGQGTQVTVSS` : low polyreactivity

// `QVQLVESGGGLVQAGGSLRLSCAASGRIFIGNAMGWYRQAPGKERELVAAISKRGGSTYYADSVKGRFTISRDNAKNTVYLQMNSLKPEDTAVYYCNTESLYREFDDWGQGTQGTVSS` : polyreactivity (PSR sort gate) value = low polyreactivity

Entry `QVQLVESGGGLVQAGGSLRLSCAASGRILKWYAMGGYRQAPGKVRELVAAISARGGSTFYADSVKGRFTSSRDNAKNTVYLPMNSLKPEDTAVYYCAKRWPYTMYYWGQGTQVTVSS` ; polyreactivity (PSR sort gate) = high polyreactivity

// polyreactivity (PSR sort gate) lookup, sequence = `QVQLVESGGGLVQAGGSLRLSCAASGSTFQANTMGWYRQAPGKERELVAAISIRGANTYYADSVKGRFTISRDNAKNTVYLQMNSLKPEDTAVYYCNAALRTRRGDYDYWGQGTQVTVSS` , result: high polyreactivity

The reported value for `QVQLVESGGGLVQAGGSLRLSCAASGFTFWKYAMGWYRQAPGKERELVATITSSGDNTYYADSVKGRFTISRDNAKNNVYLQMNSLKPEDTAVYYCAADNGYHYNFDYWGQGTQVTVSS` in terms of polyreactivity (PSR sort gate) is low polyreactivity
